# Test system: Neuregulin-1 EGF-like domain
# test-name: binders of neuregulin-1 EGF-like domain, primary screen, biochemical, small-molecule microarray, 635 nm fluorescence (AID 1081);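 further: binding of the protein to compounds printed on small-molecule microarray slides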
# condition-details: small-molecule microarray binding, higher = more signal
Measured composite z-score accompanies every entry in the list below.
Respond numerically, and do not add a unit to the figure.

Study these solved cases before continuing.
• CC(C)C(=C=CC[C@@H](O)c1ccccc1OCCO)CCO = 1.36
• O=C(NCc1ccccc1)[C@@H]1c2ccccc2C(=O)N(CC23CC4CC(CC(C4)C2)C3)[C@H]1c1ccc(CO)cc1 = 1.2
• COC(=O)c1c(CC[C@@H](CO)NC(=O)N[C@@H](C)Cn2cc(C3(O)CCCCC3)nn2)oc(C(C)=O)c1C(=O)OC = 1.3
• O=C1OCCC=C[C@H]2OC34C=CCN(CCN5CCOCC5)C(=O)[C@H]3N(CCCCCCO)C(=O)[C@@H]4C12 (stereo partly drawn) = 0.988
• N#Cc1ccc(NN2C(C(O)c3c(F)cccc3Cl)C=CC3C(=O)N(c4ccccc4)C(=O)C32)cc1 (stereo not drawn) = 0.456

So, "CCOC(=O)C[C@H]1[C@H](OC(=O)c2ccc(C(=O)c3ccccc3)cc2)[C@@H](NC(=O)c2ccc(-c3ccccc3)cc2)c2cc(OCCCO)ccc2N1C(=O)c1ccccc1" ? Its composite z-score was 0.744

So, "CC(C)OC(=O)C=C1C[C@@H](c2ccccc2C(F)(F)F)O[C@@H](c2ccccc2C(F)(F)F)O1" ? Its composite z-score was -0.0471

So, [N-]=[N+]=Nc1ccccc1C[C@]1(C(=O)NCC(O)CO)N=C(c2ccc(OCCCO)cc2)O[C@H]1c1ccccc1N=[N+]=[N-] (stereo partly drawn) ? Its composite z-score was 0.753
